Target: NHE3 (Homo sapiens)
Construct: expressed in transfected cells
Sequence (P48764 26-834): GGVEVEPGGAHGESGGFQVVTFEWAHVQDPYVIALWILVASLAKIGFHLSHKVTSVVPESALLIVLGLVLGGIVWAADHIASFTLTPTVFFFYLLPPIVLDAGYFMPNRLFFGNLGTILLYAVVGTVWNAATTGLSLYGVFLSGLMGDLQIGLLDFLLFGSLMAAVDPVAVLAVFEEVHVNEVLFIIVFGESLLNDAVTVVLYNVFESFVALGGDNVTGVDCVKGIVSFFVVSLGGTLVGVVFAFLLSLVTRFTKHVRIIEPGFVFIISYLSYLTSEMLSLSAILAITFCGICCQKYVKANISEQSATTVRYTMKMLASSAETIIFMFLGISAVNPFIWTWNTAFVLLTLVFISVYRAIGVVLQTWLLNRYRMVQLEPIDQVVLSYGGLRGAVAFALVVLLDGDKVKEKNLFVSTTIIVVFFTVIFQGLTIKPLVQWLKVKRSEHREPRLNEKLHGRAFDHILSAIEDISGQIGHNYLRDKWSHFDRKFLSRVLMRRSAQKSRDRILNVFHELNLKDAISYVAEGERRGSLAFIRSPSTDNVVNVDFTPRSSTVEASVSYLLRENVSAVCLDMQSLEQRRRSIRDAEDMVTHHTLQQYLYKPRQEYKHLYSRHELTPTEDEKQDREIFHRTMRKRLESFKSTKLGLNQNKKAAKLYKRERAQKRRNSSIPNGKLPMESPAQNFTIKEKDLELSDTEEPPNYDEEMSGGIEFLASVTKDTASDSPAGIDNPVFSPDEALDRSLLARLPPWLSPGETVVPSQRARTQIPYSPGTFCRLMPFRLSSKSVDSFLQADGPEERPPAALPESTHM
Sequence (Q99653 2-195 partner limits assumed): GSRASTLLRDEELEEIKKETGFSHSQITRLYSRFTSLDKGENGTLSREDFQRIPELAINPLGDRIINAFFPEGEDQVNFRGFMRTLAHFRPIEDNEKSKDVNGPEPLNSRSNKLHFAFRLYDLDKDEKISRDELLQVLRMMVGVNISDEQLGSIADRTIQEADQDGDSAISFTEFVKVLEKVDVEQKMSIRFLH
Assay: Cell-based assay of NHE-3 activity (pre-incubation inhibition), human
Details: human Preincubation
OBSERVABLE: % inhibition

SMI: C[C@H]1CN([C@H]2Cc3c(C#N)cc(Cl)cc3[C@@H]2Oc2ccc(S(=O)(=O)N[C@@H]3CCN(CCOCCNC(=O)NCCCCNC(=O)NCCOCCN4CC[C@@H](NS(=O)(=O)c5ccc(O[C@H]6c7cc(Cl)cc(C#N)c7C[C@@H]6N6CCN[C@@H](C)C6)cc5)C4)C3)cc2)CCN1
OBSERVABLE: % inhibition
MEASURED_RESULT: C (>70%)
--
SMI: N#Cc1cc(Cl)cc2c1C[C@H](N1CCNCC1)[C@H]2Oc1ccc(S(=O)(=O)NC2CCN(C(=O)CCCNC(=O)NCCCC(=O)N3CCC(NS(=O)(=O)c4ccc(O[C@H]5c6cc(Cl)cc(C#N)c6C[C@@H]5N5CCNCC5)cc4)CC3)CC2)cc1
OBSERVABLE: % inhibition
MEASURED_RESULT: C (>70%)

###

Test system: absorption of sodium from the intestinal lumen
Test: Inhibition of intestinal sodium absorption in rats
Format: in vivo, Sprague Dawley rats
Settings: Rattus norvegicus; Sprague Dawley rats, oral gavage 0.03 mg/kg, 13-hours post-dose; read-out: Urinary Na (% of Vehicle, out/in)
OBSERVABLE: response vs control in vivo at 0.03 mg/kg

MOLECULE: C[C@@H]1CN([C@H]2Cc3c(C#N)cc(Cl)cc3[C@@H]2Oc2ccc(S(=O)(=O)N[C@@H]3CCN(CCOCCNC(=O)NCCCCNC(=O)NCCOCCN4CC[C@@H](NS(=O)(=O)c5ccc(O[C@H]6c7cc(Cl)cc(C#N)c7C[C@@H]6N6CCN[C@H](C)C6)cc5)C4)C3)cc2)CCN1
MEASURED_RESULT: > 70%
--
MOLECULE: N#Cc1cc(Cl)cc2c1C[C@H](N1CCNCC1)[C@H]2Oc1ccc(S(=O)(=O)NC2CCN(CCOCCNC(=O)NCCCCNC(=O)NCCOCCN3CCC(NS(=O)(=O)c4ccc(O[C@H]5c6cc(Cl)cc(C#N)c6C[C@@H]5N5CCNCC5)cc4)CC3)CC2)cc1
MEASURED_RESULT: > 70%
--
MOLECULE: N#Cc1cc(Cl)cc2c1C[C@H](N1CCNCC1)[C@H]2Oc1ccc(S(=O)(=O)NCCOCCOCCNC(=O)NCCCCNC(=O)NCCOCCOCCNS(=O)(=O)c2ccc(O[C@H]3c4cc(Cl)cc(C#N)c4C[C@@H]3N3CCNCC3)cc2)cc1
MEASURED_RESULT: 40 to 70%
--
MOLECULE: N#Cc1cc(Cl)cc2c1C[C@H](N1CCNCC1)[C@H]2Oc1ccc(S(=O)(=O)N2CCC(NC(=O)CCCNC(=O)NCCCCNC(=O)NCCCC(=O)NC3CCN(S(=O)(=O)c4ccc(O[C@H]5c6cc(Cl)cc(C#N)c6C[C@@H]5N5CCNCC5)cc4)CC3)CC2)cc1
MEASURED_RESULT: > 70%
--
MOLECULE: CN(C)[C@H]1CCCN([C@H]2Cc3c(C#N)cc(Cl)cc3[C@@H]2Oc2ccc(S(=O)(=O)NCCOCCOCCNC(=O)NCCCCNC(=O)NCCOCCOCCNS(=O)(=O)c3ccc(O[C@H]4c5cc(Cl)cc(C#N)c5C[C@@H]4N4CCC[C@H](N(C)C)C4)cc3)cc2)C1
MEASURED_RESULT: > 70%
--
MOLECULE: N#Cc1cc(Cl)cc2c1C[C@H](N1CCNCC1)[C@H]2Oc1ccc(S(=O)(=O)N[C@H]2CCN(C(=O)CCCNC(=O)NCCCCNC(=O)NCCCC(=O)N3CC[C@H](NS(=O)(=O)c4ccc(O[C@H]5c6cc(Cl)cc(C#N)c6C[C@@H]5N5CCNCC5)cc4)C3)C2)cc1
MEASURED_RESULT: 40 to 70%
--
MOLECULE: N#Cc1cc(Cl)cc2c1C[C@H](N1CCNCC1)[C@H]2Oc1ccc(S(=O)(=O)N[C@H]2CCN(CCOCCNC(=O)NCCCCNC(=O)NCCOCCN3CC[C@H](NS(=O)(=O)c4ccc(O[C@H]5c6cc(Cl)cc(C#N)c6C[C@@H]5N5CCNCC5)cc4)C3)C2)cc1 [Example 107, (trifluoroacetate)]
MEASURED_RESULT: 40 to 70%
--
MOLECULE: N#Cc1cc(Cl)cc2c1C[C@H](N1CCNCC1)[C@H]2Oc1ccc(S(=O)(=O)NC2CCN(C(=O)CCCNC(=O)NCCCCNC(=O)NCCCC(=O)N3CCC(NS(=O)(=O)c4ccc(O[C@H]5c6cc(Cl)cc(C#N)c6C[C@@H]5N5CCNCC5)cc4)CC3)CC2)cc1
MEASURED_RESULT: > 70%
--
MOLECULE: C[C@@H]1CN([C@H]2Cc3c(C#N)cc(Cl)cc3[C@@H]2Oc2ccc(S(=O)(=O)N[C@H]3CCN(CCOCCNC(=O)NCCCCNC(=O)NCCOCCN4CC[C@H](NS(=O)(=O)c5ccc(O[C@H]6c7cc(Cl)cc(C#N)c7C[C@@H]6N6CCN[C@H](C)C6)cc5)C4)C3)cc2)CCN1
MEASURED_RESULT: > 70%

###

Target: NHE3 (Homo sapiens, UniProt P48764)
Construct: expressed in transfected cells
Sequence (P48764 26-834): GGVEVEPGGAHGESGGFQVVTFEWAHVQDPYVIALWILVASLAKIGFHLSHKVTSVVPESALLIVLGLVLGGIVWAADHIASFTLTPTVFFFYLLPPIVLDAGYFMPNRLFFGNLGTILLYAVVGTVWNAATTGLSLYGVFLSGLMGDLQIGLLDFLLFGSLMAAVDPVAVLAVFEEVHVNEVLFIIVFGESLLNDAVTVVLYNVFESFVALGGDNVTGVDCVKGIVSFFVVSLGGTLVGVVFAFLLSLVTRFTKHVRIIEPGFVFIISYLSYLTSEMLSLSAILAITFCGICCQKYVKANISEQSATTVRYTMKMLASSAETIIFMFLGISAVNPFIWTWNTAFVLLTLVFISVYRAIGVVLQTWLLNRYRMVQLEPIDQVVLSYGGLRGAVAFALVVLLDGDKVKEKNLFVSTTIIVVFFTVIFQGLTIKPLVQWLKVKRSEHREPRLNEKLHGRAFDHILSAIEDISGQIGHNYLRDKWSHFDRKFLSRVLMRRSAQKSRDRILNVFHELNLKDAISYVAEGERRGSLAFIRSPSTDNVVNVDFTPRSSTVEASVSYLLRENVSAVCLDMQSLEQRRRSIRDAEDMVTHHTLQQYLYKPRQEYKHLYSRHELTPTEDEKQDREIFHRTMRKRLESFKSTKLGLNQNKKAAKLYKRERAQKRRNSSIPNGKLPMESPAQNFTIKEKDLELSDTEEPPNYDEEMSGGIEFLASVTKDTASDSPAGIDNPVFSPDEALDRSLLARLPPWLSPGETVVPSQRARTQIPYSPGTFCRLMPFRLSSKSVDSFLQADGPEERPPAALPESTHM
Sequence (Q99653 2-195 partner limits assumed): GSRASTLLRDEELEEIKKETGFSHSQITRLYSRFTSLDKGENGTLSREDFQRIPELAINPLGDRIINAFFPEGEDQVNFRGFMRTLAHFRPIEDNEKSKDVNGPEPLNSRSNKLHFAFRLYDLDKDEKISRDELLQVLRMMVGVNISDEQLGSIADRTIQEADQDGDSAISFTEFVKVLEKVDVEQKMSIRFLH
Assay: Cell-based assay of NHE-3 activity (pre-incubation inhibition), human
Details: human Preincubation
OBSERVABLE: % inhibition

SMI: Cc1cc(S(=O)(=O)N2CC[C@H](COc3ccnc(CNC(=O)NCCCCNC(=O)NCc4cc(OC[C@H]5CCN(S(=O)(=O)c6ccc(O[C@H]7c8cc(Cl)cc(Cl)c8C[C@@H]7N(C)C)c(C)c6)C5)ccn4)c3)C2)ccc1O[C@H]1c2cc(Cl)cc(Cl)c2C[C@@H]1N(C)C
MEASURED_TARGET: NHE3 (Homo sapiens, UniProt P48764)
MEASURED_RESULT: B (40-70%)
//
SMI: Cc1cc(S(=O)(=O)N[C@@H]2CCN(CCOCCNC(=O)NCCCCNC(=O)NCCOCCN3CC[C@@H](NS(=O)(=O)c4ccc(O[C@H]5c6cc(Cl)cc(Cl)c6C[C@@H]5N(C)C)c(C)c4)C3)C2)ccc1O[C@H]1c2cc(Cl)cc(Cl)c2C[C@@H]1N(C)C
MEASURED_TARGET: NHE3 (Homo sapiens, UniProt P48764)
MEASURED_RESULT: C (>70%)
//
SMI: N#Cc1cc(Cl)cc2c1C[C@H](N1CCNCC1)[C@H]2Oc1ccc(S(=O)(=O)N[C@H]2CCN(C(=O)CCCNC(=O)NCCCCNC(=O)NCCCC(=O)N3CC[C@H](NS(=O)(=O)c4ccc(O[C@H]5c6cc(Cl)cc(C#N)c6C[C@@H]5N5CCNCC5)cc4)C3)C2)cc1
MEASURED_TARGET: NHE3 (Homo sapiens, UniProt P48764)
MEASURED_RESULT: C (>70%)
//
SMI: N#Cc1cc(Cl)cc2c1C[C@H](N1C[C@@H]3C[C@H]1CN3)[C@H]2Oc1ccc(S(=O)(=O)N[C@H]2CCN(CCOCCNC(=O)NCCCCNC(=O)NCCOCCN3CC[C@H](NS(=O)(=O)c4ccc(O[C@H]5c6cc(Cl)cc(C#N)c6C[C@@H]5N5C[C@@H]6C[C@H]5CN6)cc4)C3)C2)cc1
MEASURED_TARGET: NHE3 (Homo sapiens, UniProt P48764)
MEASURED_RESULT: B (40-70%)
